// data source = PubChem BioAssay (NCI)

# System: MCF7 breast
# protocol notes: NCI tumour cell line growth inhibition, 48 h
experimental readout: TGI

Would you be so kind as to report TGI for each listed record?
1. COC(=O)[C@@H](C)C[C@H](Cc1ccc(F)cc1)NC(=O)c1csc([C@@H](C[C@H](C(C)C)N(C)C(=O)[C@@H](NC(=O)[C@H]2CCCCN2C)C2CC2)OC(C)=O)n1
2. [Mn+3].[O-][Cl+3]([O-])([O-])O.[O-]c1ccccc1C=NCCN1CC1.[O-]c1ccccc1C=NCCN1CC1
3. O=C(O)CN1CCN2CCCCCCCCN(CC1)CCN(CC(=O)O)CC2
4. CC1(C)N=C(N)N=C(N)N1c1cccc(CCCCc2ccc(Cl)c(S(=O)(=O)F)c2)c1

Output:
1: > 25 µM; 2: > 100 µM; 3: > 100 µM; 4: 17.7 µM

Could I get TGI for every one of these entries?
1. CCOC(=O)C1=NN(c2ccc(C)cc2)C2(c3ccccc3)C=C(c3ccccc3)N(C)CCN12 (stereo unspecified)
2. COC(Cc1cc(C(O)(c2ccc(C(C)(C)C)cc2)c2cc(CC(OC)(c3cc(C(OC)(c4ccc(C(C)(C)C)cc4)c4ccc(C(C)(C)C)cc4)c(C)cc3C)c3cc(C(OC)(c4ccc(C(C)(C)C)cc4)c4ccc(C(C)(C)C)cc4)c(C)cc3C)c(C)cc2C)c(C)cc1C)(c1cc(C(OC)(c2ccc(C(C)(C)C)cc2)c2ccc(C(C)(C)C)cc2)c(C)cc1C)c1cc(C(OC)(c2ccc(C(C)(C)C)cc2)c2ccc(C(C)(C)C)cc2)c(C)cc1C
3. CCCNC(=O)Cn1c2c(c3ccccc31)CCCC2
4. Cc1ccc(F)c2[nH]c(-c3ccccc3)cc(=O)c12
5. C[C@]12CC[C@@H]3c4ccc(O)cc4CC[C@H]3[C@@H]1CC(Cc1ccccc1)(Cc1ccccc1)C2=O
6. C/C1=C\[C@@H](C)C[C@@H](C)OC(=O)[C@@H](C)NC(=O)[C@H](Cc2ccc(O)c(Br)c2)N(C)C(=O)CNC(=O)[C@H](C)C1
7. N#Cc1ccc2[nH]cc(Cc3c[nH]c4ccc(C#N)cc34)c2c1

Output:
1: > 100 µM; 2: > 75 µM; 3: > 100 µM; 4: > 20.4 µM; 5: 46.8 µM; 6: > 100 µM; 7: > 50 µM

Please state, for each entry, its recorded TGI.
1. Cc1cc(OP2(=O)NCc3ccncc3O2)ccc1Cl (stereo unspecified)
2. O=C(Nc1ccc(Cl)cc1)c1cc(NCc2cc(O)ccc2O)ccc1O
3. Cc1cn(CC2(CO)CCC2)c(=O)[nH]c1=O
4. COc1ccc(-c2oc3ncnc(N)c3c2-c2ccc(NC(=O)Nc3cc(C(F)(F)F)ccc3F)cc2)cc1
5. O=c1c2ccccc2ncn1COCc1ccccc1

Output:
> 100 µM
25.5 µM
> 100 µM
3.21 µM
> 100 µM

###

I'd be grateful if you could share measured TGI for these entries.
# System: NCI/ADR-RES ovarian
# protocol notes: NCI tumour cell line growth inhibition, 48 h
Where a SMILES comes first, the peptide text is derived from it.

Use the examples below as a reference point.
Simply: CCOC(=O)c1ccc(NCc2ccc3nc(OC)c(OC)nc3c2)cc1 , NCI/ADR-RES ovarian, TGI = > 100 µM

Item COc1nc2c(c(=O)n1C)CN(c1ccccc1)C(=O)CN2C ; assay system NCI/ADR-RES ovarian; TGI reported as > 100 µM

With NCI/ADR-RES ovarian as the test system, CC1CN=C(N(C(=O)Nc2ccc(Cl)cc2)c2cccc(Cl)c2)S1 (configuration not stated) showed TGI of > 100 µM

// TGI (NCI/ADR-RES ovarian) for O=C1/C(=C/c2ccc([N+](=O)[O-])cc2)CCCc2ccccc21 = > 100 µM

Form field, TGI with NCI/ADR-RES ovarian, item C[C@]1(c2nc3c(C(N)=O)cccc3[nH]2)CCCN1 : > 100 µM

Hey, NCI/ADR-RES ovarian data for Brc1ccc2nc(-c3cccs3)nc(N3CCN(c4ccccc4)CC3)c2c1 : TGI came out at > 100 µM

Look up TGI for the entries below, preserving their order.
1. COC(=O)[C@H](Cc1ccccc1)NC(=O)OCC1OC(n2cc(C)c(=O)[nH]c2=O)CC1N=[N+]=[N-] (some centres not stated)
2. COc1ccc2nc(N/N=C/c3ccc(C)s3)cc(C)c2c1
3. COc1ccc(CC2Cc3ccccc3CC(=O)N2)cc1OC (configuration not stated)
4. CS(=O)(=O)c1ccc(C(=O)O[C@@H]2C(=O)N3CC[C@H]4OC(O)[C@@H]2[C@H]43)cc1 (some centres not stated)
5. C=C(C)[C@@H]1C/C=C(/COC(C)=O)CC[C@H]2O[C@@]2(C)CC/C=C(\C)CC1
6. COC(=O)c1ccc(NCC2=CC(=O)C=CC2=O)cc1O
7. COP(=O)(/C=C/C(NC(=O)C(Cl)(Cl)Cl)c1ccccc1)OC (configuration not stated)
8. C[C@]12CC[C@@H]3c4ccc(O)cc4CC[C@H]3[C@@H]1CC(Cc1ccccc1)(Cc1ccccc1)C2=O

Output:
["> 100 µM", "66.4 µM", "> 100 µM", "> 100 µM", "> 100 µM", "47 µM", "> 100 µM", "30.7 µM"]

For every item in the list below, what is its measured TGI?
1. CCOc1cc2c(cc1O)C=C[C@@H]1[C@@H]2CC[C@]2(C)[C@@H](O)CC[C@@H]12
2. CC(=O)NC(CS)C(=O)NC(CO)C(=O)NC(CO)C(=O)NC(Cc1c[nH]c2ccccc12)C(=O)N1CCCC1C(=O)NC(CO)C(=O)NC(Cc1c[nH]c2ccccc12)C(=O)NC(Cc1c[nH]cn1)C(=O)NC(CO)C(=O)NC(Cc1c[nH]c2ccccc12)C(=O)NCC(=O)NCC(=O)NC(C)C(=O)NC(CCC(N)=O)C(=O)NC(CCCCN)C(=O)NC(C)C(=O)NC(CCCNC(=N)N)C(=O)NC(CCCCN)C(N)=O (configuration not stated) (Ac-CSSWPSWHSWGGAQKARK-NH2; configuration not given here)
3. NC(CCl)=NCC12CC3CC(CC(C3)C1)C2

Output:
["12.8 µM", "> 50 µM", "14.4 µM"]
